koff for assorted binders
- target or test system: T1, His-tagged cynomolgus PD-1 ECD (cynomolgus (Macaca fascicularis), UniProt Q15116 25-170 (human entry))
- T1 construct: bought from Acro Biosystems; not shown: His tag
- T1 chain: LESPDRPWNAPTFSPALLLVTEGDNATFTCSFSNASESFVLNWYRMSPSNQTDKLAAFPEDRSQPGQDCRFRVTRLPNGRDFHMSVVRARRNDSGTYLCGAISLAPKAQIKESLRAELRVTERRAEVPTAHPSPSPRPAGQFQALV
- procedure summary: SPR, IgG captured, monovalent PD-1 ECD analyte
Answer with a number only, understood to be in s⁻¹.

binder="12796.15376 (antibody, human IgG1, lambda, L234A L235A, V domains shown, humanized, IgG1 LALA, lambda) VH: EVQLLESGGGLVQPGGSLRLSCAASGFDFSSYTMQWVRQAPGKGLEWVGVISSTGGSTGYGPAVKGRATISRDNSKNTLYLQMNSLRAEDTAVYYCVKSVSGDAWSVDGLDAWGQGTLVTVSS VL: SYELTQDPAVSVALGQTVRITCSGGGSAYGWYQQKPGQAPVTVIYYNNQRPSDIPDRFSGSSSGNTASLTITGAQAEDEADYYCGSYDSSAVGIFGSGTKVTVLG" measured_quantity=koff measured_value=0.0007
binder="12865.15377 (antibody, human IgG1, lambda, L234A L235A, V domains shown, humanized, IgG1 LALA, lambda) VH: EVQLLESGGGLVQPGGSLRLSCAASGFDFSDHGMQWVRQAPGKGLEYVGVIDTTGRYTYYAPAVKGRATISRDNSKNTLYLQMNSLRAEDTAVYYCAKTTCVGGYLCNTVGSIDAWGQGTLVTVSS VL: SYELTQDPAVSVALGQTVRITCSGGGSSSYYGWYQQKPGQAPVTVIYDDTNRPSGIPDRFSGSSSGNTASLTITGAQAEDEADYYCGGYEGSSHAGIFGSGTKVTVLG" measured_quantity=koff measured_value=0.00038
binder="12748.16124 (antibody, human IgG1, lambda, L234A L235A, V domains shown, alternative germline VL variant of 12748.15381; IgG1 LALA, lambda) VH: EVQLLESGGGLVQPGGSLRLSCAASGFTFSDYAMNWVRQAPGKGLEWVAGIGNDGSYTNYGAAVKGRATISRDNSKNTLYLQMNSLRAEDTAVYYCASDIRSRNDCSYFLGGCSSGFIDVWGQGTLVTVSS VL: SYELTQPPSVSVSPGQTARITCSGGSSYSYGWFQQKPGQAPVTVIYESNNRPSDIPERFSGSSSGTTVTLTISGVQAEDEADYYCGNADSSSGIFGSGTKVTVLG" measured_quantity=koff measured_value=0.00039
binder="12748.15381 (antibody, human IgG1, lambda, L234A L235A, V domains shown, humanized, IgG1 LALA, lambda) VH: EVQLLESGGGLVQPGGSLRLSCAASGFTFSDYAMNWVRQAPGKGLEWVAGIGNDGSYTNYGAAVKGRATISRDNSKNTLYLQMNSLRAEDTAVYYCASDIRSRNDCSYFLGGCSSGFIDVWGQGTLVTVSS VL: SYELTQDPAVSVALGQTVRITCSGGSSYSYGWFQQKPGQAPVTVIYESNNRPSDIPDRFSGSSSGNTASLTITGAQAEDEADYYCGNADSSSGIFGSGTKVTVLG" measured_quantity=koff measured_value=0.00047

Field: next binder
Ask: Field request: koff | item: 12760.15375 (antibody, human IgG1, lambda, L234A L235A, V domains shown, humanized, IgG1 LALA, lambda) VH: EVQLLESGGGLVQPGGSLRLSCAASGFTFSTFNMVWVRQAPGKGLEYVAEISSDGSFTWYATAVKGRATISRDNSKNTVYLQMNSLRAEDTAVYYCAKSDCSSSYYGYSCIGIIDAWGQGTLVTVSS VL: SYELTQDPAVSVALGQTVRITCSGGISDDGSYYYGWFQQKPGQAPVTVIYINDRRPSNIPDRFSGSSSGNTASLTITGAQAEDEADYYCGSYDSSAGVGIFGSGTKVTVLG
Result: 0.0072
